Source: patent US10940201B2

# assayedTarget: human TLR9 (Homo sapiens, UniProt Q9NR96)
# Construct: host or cells: HEK-Blue hTLR9 cells (HEK293)
# Sequence (Q9NR96 26-1032): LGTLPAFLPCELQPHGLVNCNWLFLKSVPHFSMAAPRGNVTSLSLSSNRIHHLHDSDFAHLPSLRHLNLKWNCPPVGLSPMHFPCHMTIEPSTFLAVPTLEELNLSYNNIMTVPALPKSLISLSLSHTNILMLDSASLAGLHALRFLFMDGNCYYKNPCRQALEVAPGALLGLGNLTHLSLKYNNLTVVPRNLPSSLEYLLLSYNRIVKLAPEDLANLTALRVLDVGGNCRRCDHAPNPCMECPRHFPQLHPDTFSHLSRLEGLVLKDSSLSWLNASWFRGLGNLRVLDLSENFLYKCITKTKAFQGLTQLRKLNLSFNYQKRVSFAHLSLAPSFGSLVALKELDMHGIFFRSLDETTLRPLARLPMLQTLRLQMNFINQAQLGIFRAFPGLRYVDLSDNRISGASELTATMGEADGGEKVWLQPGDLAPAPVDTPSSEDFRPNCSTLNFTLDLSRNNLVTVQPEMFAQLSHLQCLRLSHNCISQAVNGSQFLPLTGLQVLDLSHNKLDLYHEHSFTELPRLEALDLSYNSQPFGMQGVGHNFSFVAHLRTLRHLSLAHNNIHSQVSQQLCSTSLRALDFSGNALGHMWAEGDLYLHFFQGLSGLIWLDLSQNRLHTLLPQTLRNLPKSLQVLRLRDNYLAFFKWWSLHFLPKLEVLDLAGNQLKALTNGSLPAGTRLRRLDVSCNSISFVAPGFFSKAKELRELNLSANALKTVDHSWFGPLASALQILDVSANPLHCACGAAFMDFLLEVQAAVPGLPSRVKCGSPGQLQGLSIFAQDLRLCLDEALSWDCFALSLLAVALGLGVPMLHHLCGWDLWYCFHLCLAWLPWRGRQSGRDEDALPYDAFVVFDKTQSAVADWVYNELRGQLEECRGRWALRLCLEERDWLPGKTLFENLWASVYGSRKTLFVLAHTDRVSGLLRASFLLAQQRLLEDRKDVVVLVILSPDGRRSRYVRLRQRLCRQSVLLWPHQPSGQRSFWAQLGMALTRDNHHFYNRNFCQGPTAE
# assayInfo: Reporter assay with HEK-Blue hTLR9 cells (TLR9 agonist activity)
# Type: cell-based
# recordedConditions: Table 30; CpG oligonucleotides except for ODN2006 and their double strands; read-out: EC50
In the oligonucleotide strings, read from the 5' end, every base follows the letter of its sugar. An asterisk marks phosphorothioate; unmarked linkages are phosphodiester. Other units and linkages are bracketed, terminal groups are in braces. A string of capitals states the bases alone. d = 2'-deoxy (DNA)
Strictly below 20 µM in EC50: 1 (yes). Otherwise: 0 (no).

Some solved entries appear below for comparison.
SEQ-351 (dT*dC*dG*dT*dC*dG*dT*dT*dT*dT*dC*dG*dG*dC*dG*dC*dG*dC*dG*dC*dC*dG); 1 (yes)
SEQ-253 (sense dA*dT*dC*dG*dA*dC*dT*dC*dT*dC*dG*dA*dG*dC*dG*dT*dT*dC*dT*dC); 1 (yes)
SEQ-354 (dT*dC*dG*dT*dC*dG*dT*dC*dG*dT*dT*dC*dG*dA*dA*dC*dG*dA*dC*dG*dT*dT*dG*dA*dT); 0 (no)
SEQ-345 (dT*dC*dG*dC*dG*dA*dC*dG*dT*dT*dC*dG*dC*dC*dC*dG*dA*dC*dG*dT*dT*dC*dG*dG*dT*dA); 1 (yes)
SEQ-258 (sense GGTGCATCGATGCAGGGGGG; antisense CCCCCCTGCATCGATG; phosphorothioate, 5' L4-18 lipid, chemistry not fully specified); 1 (yes)
SEQ-256 (sense dG*dGdTdGdCdAdTdCdGdAdTdGdCdAdGdGdGdG*dG*dG); 0 (no)

// next entry
Given SEQ-342 (dT*dC*dG*dA*dC*dG*dT*dT*dC*dG*dT*dC*dG*dT*dT*dC*dG*dT*dC*dG*dT*dT*dC) , is recorded EC50 strictly lower than 20 µM?
1 (yes)
